# System: P. falciparum 3D7 parasites
# test.name: P. falciparum growth inhibition assay, 2-cycle (120 h treatment), delayed-death screen and dose-response
# Type: cell-based, Plasmodium falciparum
# experimental.conditions: P. falciparum 3D7, 120 h, library screen at 2 μg/mL, % growth, replicate 1

{"compound": "CC1(C)OC2CC(=O)OCC23C1CC(=O)C1(C)C3CCC2(C)C(c3ccoc3)OC(=O)C3OC321 (stereo not drawn)", "Pf_120h_%Growth_Rep1 / %": 93.20}
{"compound": "CC1OC(=O)C2CC3CCCCC3C(C=CC3CCCC(C)N3C)C12 (stereo not drawn)", "Pf_120h_%Growth_Rep1 / %": 64.50}
{"compound": "O=C1CCCC2C3CC(CN12)C1CCCCN1C3 (stereo not drawn)", "Pf_120h_%Growth_Rep1 / %": 173.37}
{"compound": "CCOC(=O)c1c2ccocc-2oc1=O", "Pf_120h_%Growth_Rep1 / %": 169.06}
{"compound": "CCC(C)C1OC2(CCC1C)CC1CC(CC=C(C)C(OC3CC(OC)C(O)C(C)O3)C(C)C=CC=C3COC4C(O)C(C)=CC(C(=O)O1)C34O)O2 (stereo not drawn)", "Pf_120h_%Growth_Rep1 / %": 91.15}
{"compound": "COc1ccc(/C=C/C(=O)O)cc1O", "Pf_120h_%Growth_Rep1 / %": 85.87}
{"compound": "COC(=O)C1=COC(C)C2CN3CCc4c([nH]c5cc(OC)c(OC)cc45)C3CC12 (stereo not drawn)", "Pf_120h_%Growth_Rep1 / %": 15.82}
{"compound": "COc1cc(O)c2c(c1)C=CCC(O)C(O)C(=O)C=CCC(C)OC2=O (stereo not drawn)", "Pf_120h_%Growth_Rep1 / %": 96.72}
{"compound": "COc1ccc2c(c1OC)C(=O)OC2C1c2cc3c(cc2CCN1C)OCO3 (stereo not drawn)", "Pf_120h_%Growth_Rep1 / %": 145.49}
{"compound": "Oc1cccc2nc3ccccc3nc12", "Pf_120h_%Growth_Rep1 / %": 70.83}
{"compound": "CCCCC(C)C=C(C)C=C(C)C(=O)NC1=CC(O)(C=CC=CC=CC(=O)NC2=C(O)CCC2=O)C2OC2C1=O (stereo not drawn)", "Pf_120h_%Growth_Rep1 / %": 83.56}
{"compound": "CCC(C)C1OC2(CCC1C)CC1CC(CC=C(C)C(OC3CC(OC)C(OC4CC(OC)C(O)C(C)O4)C(C)O3)C(C)C=CC=C3COC4C(O)C(C)=CC(C(=O)O1)C34O)O2 (stereo not drawn)", "Pf_120h_%Growth_Rep1 / %": 82.92}
{"compound": "CCCCCC(=O)NC1CCOC1=O (stereo not drawn)", "Pf_120h_%Growth_Rep1 / %": 97.98}
{"compound": "CC(C=CC1OC(=O)C=CC1C)=CC(C)CC=CC(C)=CC(C)C(=O)C(C)C(O)C(C)CC(C)=CC(=O)O (stereo not drawn)", "Pf_120h_%Growth_Rep1 / %": 60.90}
{"compound": "CNC1=NC(=O)C(C(C)c2c[nH]c3ccccc23)O1 (stereo not drawn)", "Pf_120h_%Growth_Rep1 / %": 17.78}
{"compound": "CCCC(=O)OC1C(C)OC(OC2C(C)OC(OC3C(CC=O)CC(C)C(O)C=CC=CCC(C)OC(=O)CC(OC(C)=O)C3OC)C(O)C2N(C)C)CC1(C)O (stereo not drawn)", "Pf_120h_%Growth_Rep1 / %": 4.30}
{"compound": "O=c1cc(CO)occ1O", "Pf_120h_%Growth_Rep1 / %": 76.01}
{"compound": "COC1CC(OC2C(C)OC(OC3C(C)=CCC4CC(CC5(CCC(C)C(C(C)C)O5)O4)OC(=O)C4C=C(C)C(O)C5OCC(=CC=CC3C)C45O)CC2OC)OC(C)C1O (stereo not drawn)", "Pf_120h_%Growth_Rep1 / %": 88.89}
{"compound": "CN1CCC2(c3cccc4c3NC3N(C)CCC43C34CCN(C)C3Nc3ccccc34)c3ccccc3NC12 (stereo not drawn)", "Pf_120h_%Growth_Rep1 / %": 10.24}
{"compound": "O=c1cc(O)c2nccc3c4ccccc4n1c23", "Pf_120h_%Growth_Rep1 / %": 105.89}
{"compound": "Cc1cc(O)c(O)c2oc(=O)c3c(O)cc(O)cc3c12", "Pf_120h_%Growth_Rep1 / %": 93.99}
{"compound": "COc1c(O)c(C)c(C)c(O)c1OC", "Pf_120h_%Growth_Rep1 / %": 17.29}
{"compound": "CC1=C[C@H](O/C=C2/C(=O)O[C@@H]3c4ccccc4C[C@H]23)OC1=O", "Pf_120h_%Growth_Rep1 / %": 86.54}
{"compound": "COc1cc(O)c2c(=O)oc3c(O)c(OC)cc(C)c3c2c1", "Pf_120h_%Growth_Rep1 / %": 94.64}
{"compound": "COC(=O)C1(O)CC2OC1(C)n1c3ccccc3c3c4c(c5c6ccccc6n2c5c31)CNC4=O (stereo not drawn)", "Pf_120h_%Growth_Rep1 / %": 29.46}
{"compound": "CCC(C=CC1OC(=O)C=CC1C)=CC(C)CC=CC(C)=CC(C)C(=O)C(C)C(O)C(C)CC(C)=CC(=O)O (stereo not drawn)", "Pf_120h_%Growth_Rep1 / %": 2.03}
{"compound": "CCC(C(=O)C(C)C(O)C(C)CCc1ccc(C)c(O)c1C(=O)O)C1OC(CC)(C2CCC(O)(CC)C(C)O2)CC1C (stereo not drawn)", "Pf_120h_%Growth_Rep1 / %": 6.55}
{"compound": "COC1C(O)CC(=O)OC(C)CC=CC=CC(O)C(C)CC(CC=O)C1OC1OC(C)C(OC2CC(C)(O)C(OC(=O)CC(C)C)C(C)O2)C(N(C)C)C1O (stereo not drawn)", "Pf_120h_%Growth_Rep1 / %": 5.60}
{"compound": "Cc1cc(O)cc(=O)o1", "Pf_120h_%Growth_Rep1 / %": 102.52}
{"compound": "Cc1c2ccocc-2oc1=O", "Pf_120h_%Growth_Rep1 / %": 94.18}
